experiment: Dissociation constant, pKa of the compound; type: physicochemical

{"columns": ["ENTRY SMILES", "pKa"],
 "data": [
  ["CSC(=N)N", 9.83]
]}

---

molecular target: Indoleamine 2,3-dioxygenase 1 (Homo sapiens); conditions: at 200 µM
Sequence (P14902 whole entry, looked up): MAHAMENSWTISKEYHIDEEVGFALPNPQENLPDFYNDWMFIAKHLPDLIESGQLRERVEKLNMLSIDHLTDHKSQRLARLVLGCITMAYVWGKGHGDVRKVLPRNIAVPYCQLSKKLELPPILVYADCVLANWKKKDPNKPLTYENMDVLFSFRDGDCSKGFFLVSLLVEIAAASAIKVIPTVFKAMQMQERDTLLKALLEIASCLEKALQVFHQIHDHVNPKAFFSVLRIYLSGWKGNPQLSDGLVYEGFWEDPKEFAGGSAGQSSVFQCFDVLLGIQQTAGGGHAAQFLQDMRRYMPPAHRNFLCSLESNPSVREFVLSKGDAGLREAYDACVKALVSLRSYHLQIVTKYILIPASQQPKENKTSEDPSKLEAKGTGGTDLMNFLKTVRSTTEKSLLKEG
Description: Inhibition of His-tagged recombinant human IDO1 expressed in Escherichia coli using tryptophan as substrate at 200 uM by spectrophotometric analysis
A collection of compounds and their measured inhibition

{"columns": ["ENTRY SMILES", "MEASUREMENT TARGET", "inhibition (%)"],
 "data": [
  ["S=C1N2CCN=C2SC2=NCCN12", "Indoleamine 2,3-dioxygenase 1 (Homo sapiens)", 0],
  ["O[C@@H](CNCCNc1nccc(C(F)(F)F)n1)CSc1ccc(F)cc1", "Indoleamine 2,3-dioxygenase 1 (Homo sapiens)", 0],
  ["Cc1cc2nnc(/C(N)=N/O)c(C)n2n1", "Indoleamine 2,3-dioxygenase 1 (Homo sapiens)", 0],
  ["O=c1c2ccccc2nc2ccccn12", "Indoleamine 2,3-dioxygenase 1 (Homo sapiens)", 0],
  ["Nc1ccc2c(c1)N1CCN=C1S2", "Indoleamine 2,3-dioxygenase 1 (Homo sapiens)", 70],
  ["N/C(=N\\OC(=O)c1ccccc1Cl)c1cccc(CS(=O)(=O)c2ccc(Cl)cc2)c1", "Indoleamine 2,3-dioxygenase 1 (Homo sapiens)", 70],
  ["N/C(=N/OC(=O)c1cc2ccccc2oc1=O)c1ccc(Oc2ccc(C(F)(F)F)cc2[N+](=O)[O-])cc1", "Indoleamine 2,3-dioxygenase 1 (Homo sapiens)", 70],
  ["O=c1[nH]nc2n1-c1ccccc1SC2", "Indoleamine 2,3-dioxygenase 1 (Homo sapiens)", 0],
  ["O=c1nc2sccn2c2ncccc12", "Indoleamine 2,3-dioxygenase 1 (Homo sapiens)", 0],
  ["N/C(CS(=O)(=O)c1ccccc1)=N\\O", "Indoleamine 2,3-dioxygenase 1 (Homo sapiens)", 0],
  ["Sc1nnc2nnc3ccccc3n12", "Indoleamine 2,3-dioxygenase 1 (Homo sapiens)", 0],
  ["OC1(c2ccc(Cl)cc2)CCN(Cn2nnc3ccccc32)CC1", "Indoleamine 2,3-dioxygenase 1 (Homo sapiens)", 0]
]}

---

A collection of molecules and their measured IC50
target: Indoleamine 2,3-dioxygenase 1 (Homo sapiens, UniProt P14902); assay: Inhibition of His-tagged recombinant human IDO1 expressed in Escherichia coli using tryptophan as substrate by spectrophotometric analysis
Sequence (P14902 whole entry): as the sequence (P14902 whole entry, looked up) above

{"columns": ["ENTRY SMILES", "IC50 / µM"],
 "data": [
  ["c1ccc2c(c1)[nH]c1cnccc12", 90],
  ["O=C(O)c1cc2ccccc2cc1O", 1000],
  ["COC(=O)c1cc2ccccc2cc1N", 460],
  ["Nc1cc2ccccc2cc1C(=O)O", 15],
  ["Nc1cc2ccccc2cc1CO", 190]
]}

---

biological target: UniProt P14902; assay: Inhibition of IDO1
ENDPOINT LABEL: IC50 (mM)

{"columns": ["COMPOUND", "REPORTED"],
 "data": [
  ["Cc1[nH]ccc2c1[nH]c1cc(=O)ccc12 [HARMOL]", 2]
]}

---

target: UniProt:P14902; test: Inhibition of His-tagged recombinant human IDO1 expressed in Escherichia coli using tryptophan as substrate by Ehrlich's method
A collection of compounds and their measured IC50

{"columns": ["ENTRY SMILES", "MEASUREMENT TARGET", "IC50 / µM"],
 "data": [
  ["NC(=NOC(=O)c1ccccc1Cl)c1cccc(CS(=O)(=O)c2ccc(Cl)cc2)c1", "UniProt:P14902", 60],
  ["N=C(NOC(=O)c1cc2ccccc2oc1=O)c1ccc(Oc2ccc(C(F)(F)F)cc2[N+](=O)[O-])cc1", "UniProt:P14902", 20],
  ["Cc1nnsc1C(=O)O/N=C(/N)COc1ccc(C2SCCS2)cc1", "UniProt:P14902", 50]
]}

---

target: Indoleamine 2,3-dioxygenase 1 (Homo sapiens, UniProt P14902); details: at 200 µM

{"columns": ["COMPOUND", "MEASUREMENT TARGET", "MEASUREMENT UNIT", "inhibition"],
 "data": [
  ["CN(C)CCCNc1cccc(Cl)c1C#N", "Indoleamine 2,3-dioxygenase 1 (Homo sapiens, UniProt P14902)", "%", 0],
  ["N/C(=N\\OS(=O)(=O)c1ccc(Cl)cc1)c1ccc(C(F)(F)F)cc1", "Indoleamine 2,3-dioxygenase 1 (Homo sapiens, UniProt P14902)", "%", 0],
  ["CN1CCN(C(=O)c2nccnc2C(=O)O)CC1", "Indoleamine 2,3-dioxygenase 1 (Homo sapiens, UniProt P14902)", "%", 0],
  ["Cn1c(S)nnc1-c1ccc(Cl)cc1", "Indoleamine 2,3-dioxygenase 1 (Homo sapiens, UniProt P14902)", "%", 0],
  ["CCOC(=O)N1CCN(CC(O)Cn2c(=O)c3c(ncn3C)n(C)c2=O)CC1 (stereo unspecified)", "Indoleamine 2,3-dioxygenase 1 (Homo sapiens, UniProt P14902)", "%", 0],
  ["Cc1nnsc1C(=O)O/N=C(/N)COc1ccc(C2SCCS2)cc1", "Indoleamine 2,3-dioxygenase 1 (Homo sapiens, UniProt P14902)", "%", 70]
]}
